Source: PubChem BioAssay (NCI)

Tested on: MDA-MB-231 breast
Assay: NCI-60 one-dose screen, 48 h (100 = growth as untreated, 0 = no growth, -100 = all killed)
Conditions: 10 µM unless noted
About 83,000 compounds went through this panel and 20% of them were active in at least one assay; those are over-represented in the sample as a whole.
Lab note: compare growth with 70%, writing T if less and F if equal or more.

Strictly below 70% in growth? COc1ccc(-c2cncnc2N)cc1OC
F

Strictly below 70% in growth? CCc1c(C(=O)N[C@@H]2c3cc(Cl)ccc3CC[C@@H]2O)[nH]c(C)c1C(C)=O
F

Strictly below 70% in growth? N=c1ccn2c(n1)OC1C(O)C(CO)OC12 (centres undefined)
F

Strictly below 70% in growth? O[C@H]1CO[C@H]2[C@@H]1OC[C@@H]2Oc1ccc(Nc2nc(Nc3ccc(F)c(Cl)c3)ncc2F)cc1Cl
F

Strictly below 70% in growth? Fc1ccc(Nc2ccc3cc(OCCCN4CCOCC4)ccc3n2)cc1F
T

Strictly below 70% in growth? COc1cc(CNC(=O)/C=C/C=C/c2ccc3c(c2)OCO3)ccc1OCc1cn(-c2ccc(Cl)c(Cl)c2)nn1
T

Strictly below 70% in growth? COc1cccc(/C=C2\COc3ccc(O)cc3C2=O)c1OC
F

Strictly below 70% in growth? C=C1C(=O)O[C@H]2[C@H]1CC/C(C(=O)NCCCCCCCCNC(=O)/C1=C/CC[C@@]3(C)O[C@H]3[C@H]3OC(=O)C(=C)[C@@H]3CC1)=C\CC[C@@]1(C)O[C@@H]21
F

***
Strictly below 70% in growth? C=C(C)[C@@H]1CC[C@]2(CNCCO)CC[C@]3(C)[C@H](CC[C@@H]4[C@@]5(C)CCC(N)[C@@](C)(CO)[C@@H]5CC[C@]43C)[C@@H]12 (some centres undefined)
T

Strictly below 70% in growth? Nc1c(C(=O)c2ccc(Cl)s2)sc2nc3c(cc12)CCCC3
F

Strictly below 70% in growth? Cc1ccc(O)c(C(=O)c2ccccc2Cl)c1
F

Strictly below 70% in growth? COc1ccc(/C(C)=C(\c2ccc(Cl)cc2)c2ccc(OCCN3CCCC3)cc2)cc1F
T

Strictly below 70% in growth? CCNCCNc1cc(-c2ccc(F)cc2)c(C#N)c2nc3ccccc3n12
T

Strictly below 70% in growth? CC(=[N-])N1CCC[C@@H](Nc2c3ccccc3nc3ccccc23)C1.[Cl][Pt].[NH-]CCC[NH-]
T

Strictly below 70% in growth? CCOC(=O)C(=CNc1ccccc1[N+](=O)[O-])C(=O)OCC
F

Strictly below 70% in growth? CC1(C)N=C(N)N=C(N)N1c1cccc(CN)c1
F

Strictly below 70% in growth? C[C@@H]1CC[C@@H]2[C@@H]1[C@H](OC(=O)/C=C/c1ccccc1)[C@]1(C3CCCCC3)C[C@@H](NC(=O)CO)[C@@]2(C)O1
F

----------
Test system: MOLT-4 leukemia
Assay: NCI-60 one-dose screen, 48 h
Details: 10 µM unless noted
About 83,000 compounds went through this panel and 20% of them were active in at least one assay; those are over-represented in the sample as a whole. Calls of active or inactive are those of the source. The calls were made as follows: active = growth percent below 10; inactive = the rest.
I would appreciate it if you answered using one of these outcomes: Y (active), N (inactive)

Worked examples, 5 molecules total:
How was COc1cc(/C=C2\C=C(c3ccccc3)N(CCc3ccccc3)C2=O)cc(OC)c1OC classified in this test?
N

How was COc1cc(-c2ncn(/C=C\c3nnco3)n2)cc(C(F)(F)F)c1 classified in this test?
Y

How was Cc1nc(Nc2ccccn2)sc1C(=O)/C=C/c1ccc(Br)cc1 classified in this test?
N

How was O=C(Nc1ccccc1Cl)OCCN1CCOCC1 classified in this test?
N

How was O=C(/C=C/C12c3ccccc3C(c3ccccc31)C1C(=O)N(c3ccccc3)C(=O)C12)c1ccccc1 (centres undefined) classified in this test?
N

***
How was Cc1nc(Nc2ccc(S(=O)(=O)Nc3cc(C)on3)cc2)c2ccccc2n1 classified in this test?
N

How was COc1ccc(Nc2ncc(Br)c(NCCCNC(=O)C3CCC3)n2)cc1 classified in this test?
N

How was CN1C[C@@H](c2ccc(Cl)cc2)[C@]2(NC(=S)N(c3ccc(F)c(Cl)c3)C2=O)[C@@]12C(=O)NC1C=CC(Cl)=C[C@H]12 (some centres undefined) classified in this test?
Y

How was N#Cc1c(NC(=O)c2cccc(C(F)(F)F)c2)sc2c1CCC(=O)C2 classified in this test?
Y

How was O[C@H]1CO[C@H]2[C@@H]1OC[C@@H]2Oc1ccc(Nc2ccnc(Nc3ccc(O[C@H]4CO[C@H]5[C@@H]4OC[C@@H]5O)c(Cl)c3)n2)cc1Cl classified in this test?
Y

How was CCOC(=O)c1ccc(NC(=O)CCCN(CC)CC)cc1 classified in this test?
N

How was NC(N)=N/N=C(/c1ccccc1)c1ccc(N)cc1 classified in this test?
N

How was CCOC(=O)c1ccc(-c2ccc3cc(OC)ccc3c2)nc1C classified in this test?
N

How was N[C@H]1CCC[C@@H]1NCCCCN1C(=O)c2cccc3cccc(c23)C1=O classified in this test?
N

How was CC(C)(C)c1ccc(C(=O)Nc2sc3c(c2C(N)=O)CCC(=O)C3)cc1 classified in this test?
Y

How was COc1c(C)cnc(CSc2nc(-c3ccc(C)cc3)cn2-c2ccc(Cl)cc2)c1C classified in this test?
N

How was CCCCNC(=O)NS(=O)(=O)c1ccc(N2N=C(c3ccc(C)cc3C)CC2c2ccc(N(C)C)cc2)cc1 (centres undefined) classified in this test?
N

How was C=C1C(=O)O[C@H]2[C@H]1CC/C(C(=O)NCCCCCCCCNC(=O)/C1=C/CC[C@@]3(C)O[C@H]3[C@H]3OC(=O)C(=C)[C@@H]3CC1)=C\CC[C@@]1(C)O[C@@H]21 classified in this test?
N

How was COc1ccccc1C(=O)NC(=S)Nc1ccc(-c2nc3ccccc3[nH]2)cc1 classified in this test?
N
